These entries and their values trace back to patent US20220363763A1.

Target: T1, human PD-L1 (construct not stated) (human, UniProt Q9NZQ7 19-239, limits assumed)
T1 construct: also called B7-H1 (PD-L1); PD-L1 protein
T1 sequence (Q9NZQ7 19-239 limits assumed): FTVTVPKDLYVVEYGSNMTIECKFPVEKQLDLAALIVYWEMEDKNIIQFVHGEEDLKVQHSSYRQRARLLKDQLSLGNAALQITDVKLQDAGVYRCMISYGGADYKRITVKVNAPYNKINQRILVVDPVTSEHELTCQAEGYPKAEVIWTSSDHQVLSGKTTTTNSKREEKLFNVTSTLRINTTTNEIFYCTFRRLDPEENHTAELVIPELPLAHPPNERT
Assay: BLI Octet Red 96, affinity ranking

BINDER: Hu1210-1 (antibody, V domains shown, Hu1210 VH.1 x Vk.1) VH: EVQLVESGGGLVKPGGSLRLSCAASGFTFSSYDMSWVRQAPGKGLEWVSTISDGGGYIYYSDSVKGRFTISRDNAKNSLYLQMNSLRAEDTAVYYCAREFGKRYALDYWGQGTTVTVSS VL: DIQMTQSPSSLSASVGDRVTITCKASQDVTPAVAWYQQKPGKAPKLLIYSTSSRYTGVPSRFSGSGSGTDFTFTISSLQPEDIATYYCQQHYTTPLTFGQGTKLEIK
kon (M⁻¹ s⁻¹): 71000
--
BINDER: Hu1210-22 (antibody, V domains shown, Hu1210 VH.4b x Vk.1a; human gamma 1 / kappa constant domains) VH: EVQLVESGGGLVQPGGSLRLSCAASGFTFSSYDMSWVRQAPGKSLEWVATISDGGGYIYYSDSVKGRFTISRDNAKNSLYLQMNSLRDEDTAVYICAREFGKRYALDYWGQGTTVTVSS VL: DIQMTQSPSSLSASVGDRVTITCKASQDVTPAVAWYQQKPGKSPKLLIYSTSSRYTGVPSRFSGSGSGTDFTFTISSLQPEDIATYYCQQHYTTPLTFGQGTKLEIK
kon (M⁻¹ s⁻¹): 90000
--
BINDER: Hu1210-18 (antibody, V domains shown, Hu1210 VH.3 x Vk.1a; human gamma 1 / kappa constant domains) VH: EVQLLESGGGLVQPGGSLRLSCAASGFTFSSYDMSWVRQAPGKGLEWVSTISDGGGYIYYSDSVKGRFTISRDNSKNTLYLQMNSLRAEDTAVYYCAREFGKRYALDYWGQGTTVTVSS VL: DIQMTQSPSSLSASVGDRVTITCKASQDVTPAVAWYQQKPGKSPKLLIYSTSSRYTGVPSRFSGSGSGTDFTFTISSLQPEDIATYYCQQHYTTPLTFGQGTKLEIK
kon (M⁻¹ s⁻¹): 79200
--
BINDER: Hu1210-8 (antibody, V domains shown, Hu1210 VH.1a x Vk.1a; human gamma 1 / kappa constant domains) VH: EVQLVESGGGLVKPGGSLRLSCAASGFTFSSYDMSWVRQAPGKGLEWVATISDGGGYIYYSDSVKGRFTISRDNAKNSLYLQMNSLRAEDTAVYYCAREFGKRYALDYWGQGTTVTVSS VL: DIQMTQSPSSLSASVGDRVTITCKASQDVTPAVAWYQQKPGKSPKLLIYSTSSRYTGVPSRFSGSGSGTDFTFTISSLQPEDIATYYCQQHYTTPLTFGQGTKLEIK
kon (M⁻¹ s⁻¹): 77200
--
BINDER: Hu1210-3 (antibody, V domains shown, Hu1210 VH.1b x Vk.1; human gamma 1 / kappa constant domains) VH: EVQLVESGGGLVKPGGSLRLSCAASGFTFSSYDMSWVRQAPGKSLEWVATISDGGGYIYYSDSVKGRFTISRDNAKNSLYLQMNSLRAEDTAVYICAREFGKRYALDYWGQGTTVTVSS VL: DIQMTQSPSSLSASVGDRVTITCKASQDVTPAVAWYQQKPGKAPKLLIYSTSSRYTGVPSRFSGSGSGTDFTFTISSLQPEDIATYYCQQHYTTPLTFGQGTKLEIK
kon (M⁻¹ s⁻¹): 86200
